Tested on: OVCAR-5 ovarian
Assay: NCI tumour cell line growth inhibition, 48 h

# molecule, system under test, GI50
records = [
    ("N=C1C(c2nc3ccccc3s2)=C(O)CN1c1cc(Cl)cc(Cl)c1", "OVCAR-5 ovarian", "> 100 µM"),
    ("COc1ccc2nc3cc(Cl)ccc3c(Nc3cc(C(C)C)c(O)cc3C)c2c1", "OVCAR-5 ovarian", "3.03 µM"),
    ("COc1cc(-c2nn(-c3cccc(NC(=O)CCN4CCN(C)CC4)c3)cc2-c2ccncc2)ccc1Cl", "OVCAR-5 ovarian", "2.06 µM"),
    ("CC[C@@]1(O)C(=O)NCc2c1cc1n(c2=O)Cc2cc3c(NC(C)=O)cccc3nc2-1", "OVCAR-5 ovarian", "> 100 µM"),
    ("COc1cc(NC(=O)c2ccccc2Nc2ccnc(C(F)(F)F)c2)cc(OC)c1OC", "OVCAR-5 ovarian", "> 100 µM"),
    ("O=C1NC(=N[C@H](CO)c2ccccc2)S/C1=C\\c1ccc2ncccc2c1", "OVCAR-5 ovarian", "4.96 µM"),
    ("O=C1N=C(Nc2nc(-c3csc(NC4=NC(=O)/C(=C\\c5ccc(Cl)cc5)S4)n3)cs2)S/C1=C/c1ccc(Cl)cc1", "OVCAR-5 ovarian", "25.8 µM"),
    ("C#Cc1ccc(-n2c(/C=C/c3ccc4ccccc4c3)nc3ncccc3c2=O)cc1", "OVCAR-5 ovarian", "6.88 µM"),
    ("Cc1[nH]n(-c2cccc(Cl)c2)c(=O)c1/C=C1\\C=c2ccccc2=CC1=O", "OVCAR-5 ovarian", "> 100 µM"),
    ("Oc1cccc(-c2nc(-c3ccccc3)[nH]c2-c2ccncc2)c1", "OVCAR-5 ovarian", "16.9 µM"),
    ("O=C(Nc1ccccc1)Nc1ccc(Cl)c(Cl)c1", "OVCAR-5 ovarian", "8.85 µM"),
    ("Cc1cn2c(/C=C3/C(=O)Nc4ccc(Cl)cc43)c(C)nc2s1", "OVCAR-5 ovarian", "1.91 µM"),
    ("CCc1ccc2c(c1)C(=O)c1c-2n(CCCN)c(=O)c2cc([N+](=O)[O-])ccc12", "OVCAR-5 ovarian", "2.07 µM"),
    ("CC1COCCN1CC#CCOC(=O)c1cc2ccccc2oc1=O (stereo not drawn)", "OVCAR-5 ovarian", "> 100 µM"),
    ("O=C(CSc1ncc(-c2ccccc2)n1-c1ccccc1)Nc1ccc(-c2nc3ccccc3s2)cc1", "OVCAR-5 ovarian", "> 100 µM"),
    ("COc1cc(Cn2c(SCC(=O)Nc3ccc(Cl)cc3)nc3ccccc3c2=O)cc(OC)c1OC", "OVCAR-5 ovarian", "14.8 µM"),
    ("CNCCN(C)Cc1cn[nH]c1-c1ccc(OC2CC(OCCC3CCOCC3)C2)cc1 (stereo not drawn)", "OVCAR-5 ovarian", "> 100 µM"),
    ("COc1cc(NC(C)CCCN2C(=O)c3ccccc3C2=O)c2ncccc2c1OC (stereo not drawn)", "OVCAR-5 ovarian", "82.6 µM"),
]

---

// TGI lookup, one value per entry
Tested on: SK-MEL-2 melanoma
Experiment: NCI tumour cell line growth inhibition, 48 h

# compound, system under test, TGI
records = [
    ("Cc1cc2c(cc1Cl)N1C(=O)NS(=O)(=O)N=C1NS2(=O)=O", "SK-MEL-2 melanoma", "> 100 µM"),
    ("O=C1C(Br)=CC2(C=C1Br)CCNc1c(O)c3c4c(c12)=NCCC=4C=N3", "SK-MEL-2 melanoma", "0.428 µM"),
    ("O=S(=O)(Oc1ccc2ccccc2c1-c1c(OS(=O)(=O)C(F)(F)F)ccc2ccccc12)C(F)(F)F", "SK-MEL-2 melanoma", "> 100 µM"),
    ("CC(C)NC(=O)OCc1c(COC(=O)NC(C)C)c(-c2cc[n+](COC(=O)C(C)C)cc2)n2c1CCC2", "SK-MEL-2 melanoma", "> 100 µM"),
    ("CNC(C)Cc1ccccc1OC (stereo not given)", "SK-MEL-2 melanoma", "> 100 µM"),
    ("c1c2c(cc3c1OCO3)-c1cc3ccc4c(c3c[n+]1CC2)OCO4", "SK-MEL-2 melanoma", "> 12.5 µM"),
    ("CCn1c(O)c(C=Nc2ccccc2)s/c1=N/Nc1nc(-c2ccc(O)c(O)c2)cs1", "SK-MEL-2 melanoma", "> 100 µM"),
    ("C[C@H](c1ccccc1)N(CCC(=O)O)C(=O)CCN(C(=O)CCN(C(=O)CCN[C@H](C)c1ccccc1)[C@H](C)c1ccccc1)[C@H](C)c1ccccc1", "SK-MEL-2 melanoma", "> 100 µM"),
    ("O=C1CC[C@@H](NC(=O)Cc2ccccc2)C(=O)N1", "SK-MEL-2 melanoma", "> 100 µM"),
    ("C=C1C(=O)C2(C)OC2(C)C1C(=O)O (stereo not given)", "SK-MEL-2 melanoma", "> 100 µM"),
]

---

Test system: MDA-MB-435
Assay: NCI tumour cell line growth inhibition, 48 h
Where a SMILES comes first, the peptide text is derived from it. [ ]: non-standard residue; d: D form. The star is where a group is joined. Phe(4-NO2) = N[CH](Cc1ccc([N+](=O)[O-])cc1)C(=O)O; Boc = CC(C)(C)OC(=O)*

# compound, system under test, TGI
measured = [
    ("N#CC1=C(N)OC(c2cccc([N+](=O)[O-])c2)C1(C#N)C#N (centres undefined)", "MDA-MB-435", "59.2 µM"),
    ("C=C(CO)[C@H]1Oc2ccc(C(C)=O)cc2[C@@H]1O", "MDA-MB-435", "> 100 µM"),
    ("COC(=O)C1(C)CCCC2(C)c3cc(OC)ccc3C(=O)C(Br)C12 (centres undefined)", "MDA-MB-435", "> 10 µM"),
    ("O=c1[nH]c(SCc2ccccc2[N+](=O)[O-])nc2nc[nH]c12", "MDA-MB-435", "> 100 µM"),
    ("CC(=O)OCC1OC(Oc2cc(C)c(O)cc2C/C=C(\\C)CC/C=C(\\C)C[C@@H](C=C(C)C)OC(C)=O)C(O)C(OC(C)=O)C1OC(C)=O (some centres undefined)", "MDA-MB-435", "> 50 µM"),
    ("COC(=O)CCC(NC(=O)OC(C)(C)C)C(=O)NC(Cc1ccc([N+](=O)[O-])cc1)C(=O)NC(CCC(=O)OC)C(=O)OC (centres undefined) (Boc-Glu(OMe)-[Phe(4-NO2)]-Glu(OMe)-OMe; configuration not given here)", "MDA-MB-435", "> 100 µM"),
    ("COc1cc(/C=C/c2ccccn2)cc(OC)c1OC", "MDA-MB-435", "> 10 µM"),
    ("COC(=O)c1ccccc1C1=C([N+](=O)[O-])C(c2cccc(Br)c2)C(C#N)=C(N)O1 (centres undefined)", "MDA-MB-435", "57.4 µM"),
    ("OCCCCCCCCCCCOc1ccc(C2OCC3(CC=CCC3)CO2)cc1 (centres undefined)", "MDA-MB-435", "38 µM"),
    ("COc1ccc(/C=C2\\CCC(Cc3ccccc3)(CN(C)C)C2=O)cc1 (centres undefined)", "MDA-MB-435", "> 100 µM"),
    ("Oc1cccc(-c2nc(-c3ccccc3)[nH]c2-c2ccncc2)c1", "MDA-MB-435", "> 25 µM"),
    ("COc1ccc2nc3c([N+](=O)[O-])ccc(NCCN(C)C)c3c(NCCN(C)C)c2c1", "MDA-MB-435", "3.01 µM"),
    ("COc1ccc2c(c1)N(CCO)C1=C(C(=O)OC1)C2c1ccc(OC)c(OC)c1 (centres undefined)", "MDA-MB-435", "2.13 µM"),
    ("Cc1ccc([N+](=O)[O-])cc1S(=O)(=O)Nc1ccc(C2=NOC(c3ccccc3O)C2)cc1 (centres undefined)", "MDA-MB-435", "3.22 µM"),
    ("O=C1OCCC[C@H]2O[C@@H](COCc3ccccc3)C[C@@H]12", "MDA-MB-435", "> 100 µM"),
    ("Cc1ccc(S(=O)(=O)Oc2nc3nc4ccccc4nc3nc2OS(=O)(=O)c2ccc(C)cc2)cc1", "MDA-MB-435", "> 100 µM"),
    ("O=c1c2n[nH]nc2nc2n1CC(c1ccccc1)S2 (centres undefined)", "MDA-MB-435", "> 100 µM"),
    ("COC(=O)[C@@H]1COC(C(C)(C)C)N1C(=O)C(c1ccccc1)c1ccccc1 (some centres undefined)", "MDA-MB-435", "> 100 µM"),
    ("CN1CCN(c2ccc(Nc3ncc4cc5n(c4n3)C3(CCCCC3)CNC5=O)nc2)CC1", "MDA-MB-435", "24 µM"),
]
